target: human HER3 receptor (human, UniProt P21860 20-1342); experiment: cell-based or functional assay
Sequence (P21860 20-1342 limits assumed): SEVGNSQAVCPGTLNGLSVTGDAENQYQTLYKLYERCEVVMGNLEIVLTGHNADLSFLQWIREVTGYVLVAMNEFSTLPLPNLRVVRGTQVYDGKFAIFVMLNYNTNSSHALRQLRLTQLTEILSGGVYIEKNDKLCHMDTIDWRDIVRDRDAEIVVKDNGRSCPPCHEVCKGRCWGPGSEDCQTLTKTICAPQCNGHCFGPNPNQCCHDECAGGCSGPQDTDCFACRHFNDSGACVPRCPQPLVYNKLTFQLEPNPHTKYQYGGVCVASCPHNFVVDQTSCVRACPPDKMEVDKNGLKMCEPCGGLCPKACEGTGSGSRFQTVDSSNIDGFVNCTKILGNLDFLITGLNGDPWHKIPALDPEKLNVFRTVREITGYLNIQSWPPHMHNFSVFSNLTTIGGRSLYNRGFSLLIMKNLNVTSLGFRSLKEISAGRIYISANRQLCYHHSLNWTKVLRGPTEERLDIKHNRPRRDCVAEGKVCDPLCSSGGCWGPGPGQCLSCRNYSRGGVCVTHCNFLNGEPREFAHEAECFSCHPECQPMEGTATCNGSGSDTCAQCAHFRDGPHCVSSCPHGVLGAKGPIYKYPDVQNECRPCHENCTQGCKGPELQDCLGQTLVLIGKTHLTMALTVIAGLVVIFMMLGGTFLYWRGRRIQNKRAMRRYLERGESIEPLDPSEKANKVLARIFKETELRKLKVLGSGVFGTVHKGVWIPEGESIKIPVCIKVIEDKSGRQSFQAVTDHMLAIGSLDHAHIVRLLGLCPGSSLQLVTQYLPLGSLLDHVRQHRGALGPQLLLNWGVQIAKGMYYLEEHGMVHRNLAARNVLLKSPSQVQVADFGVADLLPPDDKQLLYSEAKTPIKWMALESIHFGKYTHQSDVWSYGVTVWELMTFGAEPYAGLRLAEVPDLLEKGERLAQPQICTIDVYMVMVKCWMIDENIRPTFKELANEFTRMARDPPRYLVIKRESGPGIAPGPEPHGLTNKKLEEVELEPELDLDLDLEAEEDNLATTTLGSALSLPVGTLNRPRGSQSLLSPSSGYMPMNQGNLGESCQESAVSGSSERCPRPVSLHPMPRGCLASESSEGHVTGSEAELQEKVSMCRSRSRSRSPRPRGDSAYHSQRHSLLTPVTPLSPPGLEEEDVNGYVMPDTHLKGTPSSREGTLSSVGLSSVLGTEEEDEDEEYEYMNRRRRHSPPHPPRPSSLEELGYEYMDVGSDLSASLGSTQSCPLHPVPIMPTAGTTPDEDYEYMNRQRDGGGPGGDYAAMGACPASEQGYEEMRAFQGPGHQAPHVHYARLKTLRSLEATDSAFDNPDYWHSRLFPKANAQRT
ASSAY_METRIC: Phospho-HER3 ELISA IC50, heregulin induced HER3 phosphorylation, N87 cells (µg/mL)
The response must be a number in µg/mL with no trailing unit.

BINDER: humanized 1D9 Fc disabled antibody (antibody, V domains shown, also called humanized 1D9 H6L2 Fc disabled antibody) VH: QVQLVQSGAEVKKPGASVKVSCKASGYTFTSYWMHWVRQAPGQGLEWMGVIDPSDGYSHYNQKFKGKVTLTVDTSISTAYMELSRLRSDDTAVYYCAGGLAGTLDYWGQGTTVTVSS VL: DIQMTQSPSSLSASVGDRVTITCRSSQSIVHSSGNTYLQWFQQKPGKAPKLLIYKVSNRFSGVPSRFSGSGSGTDFTLTISSLQPEDFAVYYCFQGSHVPWTFGQGTKLEIKR
VALUE_MEASURED: 0.0297
--
BINDER: murine 1D9 antibody (M5.1D9.1F5) (antibody, V domains shown) VH: QVQLQQPGAELVRPGTSVKLSCKASGYTFTSYWMHWVKQRPGQGLEWIGVIDPSDGYSHYNQKFKGKATLTVDTSSSTAYMQLSSLTSEDSAVYYCAGGLAGTLDYWGQGTTLTVSS VL: DVLMTQTPLSLPVSLGDQASISCRSSQSIVHSSGNTYLQWFLQKPGQSPKLLISKVSNRFSGVPDRFSGSGSGTDFTLRISRVEAEDLGLYYCFQGSHVPWTFGGGTKLEIK
VALUE_MEASURED: 0.0204
--
BINDER: humanized 1D9 antibody (antibody, human IgG1, kappa, V domains shown) VH: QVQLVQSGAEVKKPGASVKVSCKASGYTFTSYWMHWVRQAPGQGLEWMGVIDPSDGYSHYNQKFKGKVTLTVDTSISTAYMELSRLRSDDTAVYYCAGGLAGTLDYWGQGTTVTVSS VL: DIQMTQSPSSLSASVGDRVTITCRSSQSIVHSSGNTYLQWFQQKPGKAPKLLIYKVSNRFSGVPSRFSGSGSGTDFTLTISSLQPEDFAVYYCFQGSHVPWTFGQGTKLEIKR
VALUE_MEASURED: 0.0218

# Phospho-HER3 ELISA IC50, heregulin induced HER3 phosphorylation, N87 cells of murine 15D5 antibody (M5.15D5.2A1.1H10) (antibody, V domains shown) VH: EFQLQQSGPELVKPGASVKISCKASGYSFTDYNMNWVKQNNGKSLEWIGGINPNYGTTVYNQKFKGKATLTVDQSSSTAYMQLVSLTSEDSAVYYCARMTTIVPFDYWGQGTTLTVSS VL: DIQMTQTTFSLSASLGDRVTISCRASQDISNYLNWYQQKPDGTVKLLIYYTSTLHSGVPSRFSGSGSGTDYFLTIRNLEEEDIATYFCQQGYTLPWTFGGGTKLDIK = 0.0533
